logP less than 6 is Criterion met; logP greater than or equal to 6 is Criterion not met.

Examples from the recorded data:
Ask: Answer whether the compound Clc1ccc(Oc2c(Cl)c(Cl)cc(Cl)c2Cl)c(Cl)c1 has logP strictly less than 6
Result: Criterion not met

Ask: Here's an entry: Clc1cc(Oc2ccc(Cl)c(Cl)c2Cl)cc(Cl)c1Cl . Is its logP below 6?
Result: Criterion not met

Ask: Is the reported logP for Clc1cccc(Cl)c1Oc1ccccc1 strictly below 6?
Result: Criterion met

Ask: hey, is logP for Clc1cccc(Oc2ccc(Cl)cc2Cl)c1 lower than 6 or not?
Result: Criterion met

Ask: Criterion: logP strictly below 6. Is it met by Clc1cc(Cl)c(Oc2ccc(Cl)c(Cl)c2)c(Cl)c1 ?
Result: Criterion not met

Ask: Just wondering, is logP of Clc1ccc(Oc2ccccc2Cl)c(Cl)c1 below 6?
Result: Criterion met

Ask: # check: logP < 6 for Clc1ccc(Oc2c(Cl)cccc2Cl)cc1Cl
Result: Criterion met

Ask: Field: below-cutoff. Rule: recorded logP strictly less than 6. Subject: Clc1cc(Cl)c(Oc2cc(Cl)c(Cl)cc2Cl)c(Cl)c1
Result: Criterion not met

Please examine the following record next.
Ask: Hello, is logP of the following compound strictly smaller than 6? Clc1ccc(Oc2c(Cl)cccc2Cl)cc1
Result: Criterion met

###

measurement_name: logP
Please give only the number in your answer, with no unit.

Reported logP ( Clc1ccccc1Oc1ccc(Cl)c(Cl)c1Cl ) = 5.72

Next:
Form: compound = Clc1ccc(Oc2c(Cl)cc(Cl)cc2Cl)c(Cl)c1 ; logP = 6.11

Kindly note the recorded logP for Clc1ccc(Oc2c(Cl)cc(Cl)c(Cl)c2Cl)cc1 , which is 6.47

// field: logP; key: Clc1cccc(Oc2ccccc2)c1Cl ; value = 5

###

measurement_name: logP

What the record says about Clc1cc(Cl)c(Cl)c(Oc2ccc(Cl)c(Cl)c2Cl)c1 : logP is 7.01

For reference, reported logP for Clc1ccc(Oc2cc(Cl)c(Cl)c(Cl)c2Cl)cc1 stands at 6.61

// recorded logP for Clc1ccc(Oc2cc(Cl)c(Cl)c(Cl)c2)c(Cl)c1 : 6.63

logP in this record for Clc1cc(Cl)c(Oc2c(Cl)ccc(Cl)c2Cl)cc1Cl : 6.47

Measured logP of Clc1ccc(Oc2cc(Cl)ccc2Cl)cc1 : 5.66

API: the following record is the query input.
For Clc1ccc(Oc2c(Cl)c(Cl)c(Cl)c(Cl)c2Cl)c(Cl)c1Cl the compound record lists logP as 7.84

###

Below: a set of entries, each annotated with reported logP.
Reply: number alone, nothing else.

logP reported for this compound Clc1ccc(Oc2c(Cl)cccc2Cl)c(Cl)c1Cl : 6.11

Data point: Clc1ccc(Oc2cc(Cl)c(Cl)c(Cl)c2)cc1 ; logP = 6.3

# compound Clc1cc(Cl)c(Cl)c(Oc2cc(Cl)c(Cl)cc2Cl)c1 ; its logP = 6.76

Further cases:
# logP of Clc1cc(Cl)cc(Oc2cc(Cl)c(Cl)cc2Cl)c1 = 6.66

// logP lookup, compound = Clc1cccc(Oc2ccc(Cl)c(Cl)c2Cl)c1 , result: 6.07

response.value for Clc1ccc(Oc2cc(Cl)ccc2Cl)c(Cl)c1 (field: logP) = 5.78

###

measurement_name: logP
Lab note: write the figure by itself, no unit.

In plain terms, Clc1cccc(Oc2cc(Cl)c(Cl)cc2Cl)c1 has a documented logP of 6.14

# compound Clc1ccc(Oc2c(Cl)ccc(Cl)c2Cl)cc1 ; its logP = 5.88

logP for Clc1cc(Cl)c(Cl)c(Oc2ccccc2)c1Cl is 5.82

Query compound follows.
Entry Clc1ccc(Oc2ccc(Cl)c(Cl)c2Cl)cc1 — recorded logP = 6.14

###

Classification field: enter Yes for logP values not below 6, No for values below it.

// known answers, use as guide
Ask: Item Clc1cc(Oc2ccccc2)cc(Cl)c1Cl with logP of 6 or above?
Result: No

Ask: Decide: logP of Clc1cc(Oc2c(Cl)c(Cl)c(Cl)c(Cl)c2Cl)c(Cl)c(Cl)c1Cl >= 6?
Result: Yes

Would you kindly look at the next entry?
Ask: Does the molecule Clc1ccc(Oc2ccccc2)c(Cl)c1 have recorded logP that is 6 or more?
Result: No

###

Label 1 (yes) when logP is strictly below 6; otherwise label 0 (no).

A selection of reference data follows.
Ask: Take the molecule Clc1ccc(Oc2ccccc2Cl)cc1 and say whether its logP is less than 6.
Result: 1 (yes)

Ask: Is it true that logP reported for Clc1ccc(Oc2cc(Cl)c(Cl)c(Cl)c2)cc1Cl is less than 6?
Result: 0 (no)

Ask: # TODO verify logP < 6 strictly for this molecule: Clc1ccc(Oc2ccc(Cl)cc2Cl)cc1
Result: 1 (yes)

Ask: Lab note: confirm whether the reported logP for this molecule is below 6, equality not counting. molecule: Clc1ccccc1Oc1ccccc1
Result: 1 (yes)

---
Ask: Dear reviewer, please state whether Clc1ccc(Oc2ccccc2Cl)cc1Cl has logP strictly beneath 6.
Result: 1 (yes)

Ask: Is it true that logP reported for Clc1cc(Cl)c(Cl)c(Oc2ccc(Cl)c(Cl)c2)c1 is less than 6?
Result: 0 (no)

Ask: Criterion: logP strictly below 6. Is it met by Clc1ccc(Oc2c(Cl)c(Cl)cc(Cl)c2Cl)cc1 ?
Result: 0 (no)

Ask: Find out if reported logP for Clc1cc(Oc2cc(Cl)c(Cl)c(Cl)c2Cl)cc(Cl)c1Cl is less than 6
Result: 0 (no)

###

// class assignment uses logP with these ranges: Low (below 6), Medium (6 to below 7), High (7 or more)

Ask: Form: Item = Clc1ccc(Oc2cc(Cl)c(Cl)cc2Cl)c(Cl)c1 ; Class = ?
Result: Medium

Ask: Tag the class for Clc1cc(Cl)c(Oc2cc(Cl)c(Cl)c(Cl)c2Cl)c(Cl)c1
Result: High

Ask: Hi there! Could you help me figure out the category for Clc1ccc(Oc2ccc(Cl)cc2)cc1 please?
Result: Low

Others:
Ask: Please classify: Clc1ccc(Oc2cc(Cl)c(Cl)c(Cl)c2Cl)c(Cl)c1Cl
Result: High

Ask: Hi there! Could you help me figure out the category for Clc1ccc(Cl)c(Oc2ccccc2)c1Cl please?
Result: Low

Ask: Class? Entry: Clc1ccc(Oc2cccc(Cl)c2Cl)cc1
Result: Low

Ask: Hi, small favor: classify Clc1ccc(Oc2ccc(Cl)c(Cl)c2)cc1Cl by its logP when you get a moment.
Result: Medium

###

measurement_name: logP
I'd appreciate a reply containing only the number, no unit.

Below are worked cases with known answers.
In plain terms, Clc1ccc(Oc2ccc(Cl)c(Cl)c2)cc1 has a documented logP of 5.88

logP reported for this compound Clc1cc(Cl)c(Oc2c(Cl)c(Cl)cc(Cl)c2Cl)cc1Cl : 7.13

Per the records, this compound ( Clc1ccc(Oc2ccc(Cl)c(Cl)c2)c(Cl)c1 ) has logP equal to 6.13

Reported logP for Clc1ccc(Oc2c(Cl)cc(Cl)c(Cl)c2Cl)cc1Cl was 7.07

Note: attention shifts to another entry.
Record Clc1cc(Cl)c(Oc2ccccc2Cl)cc1Cl , field logP: 5.97
